Overview of recorded log10 of IC50 for various compounds
molecular target: UniProt:Q64663; assay: Antagonist activity at rat P2X7 receptor transfected in HEK cells assessed as inhibition of benzoyl-ATP-induced changes in plasma membrane pore formation; assay type: functional, cell-based, HEK293; details: read-out: Log IC50 (converted)
Note the log scale: values are log10 of IC50 expressed in nM.

Below, 2 compounds whose answers are already recorded.
>>> print(df.to_string())
                                   compound     test_system  data_value
0  O=C(NCC12CC3CC(CC(C3)C1)C2)c1cc(O[C@H]2CCCNC2)ccc1Cl  UniProt:Q64663        2.00
1  O=C(NCC12CC3CC(CC(C3)C1)C2)c1cc(OC2CCNCC2)ccc1Cl  UniProt:Q64663        2.80

Incoming: Which log10 of IC50 reading was recorded for the compound `O=C(NCC12CC3CC(CC(C3)C1)C2)c1cc(N2CCNCC2)ccc1Cl` ?
Outgoing: 3.10

----------
assay: Activity at sigma receptor; set-up: species or system Homo sapiens
Outcome measure: pIC50
API: returns pIC50 as number; meaning -log10 of concentration in mol/L.

                           structure_smiles  data_value
0  Cc1ccc(C(=O)N2CC3CNCC(C2)O3)cc1C(=O)NCC12CC3CC(CC(C3)C1)C2        5.40

Incoming: Which pIC50 reading was recorded for the compound `O=C(NCC12CC3CC(CC(C3)C1)C2)c1cc(C(=O)N2CC3CNCC(C2)O3)ccc1Cl` ?
Outgoing: 5.40

----------
Biological target: P2X purinoceptor 7 (Homo sapiens)
Sequence (Q99572 whole entry): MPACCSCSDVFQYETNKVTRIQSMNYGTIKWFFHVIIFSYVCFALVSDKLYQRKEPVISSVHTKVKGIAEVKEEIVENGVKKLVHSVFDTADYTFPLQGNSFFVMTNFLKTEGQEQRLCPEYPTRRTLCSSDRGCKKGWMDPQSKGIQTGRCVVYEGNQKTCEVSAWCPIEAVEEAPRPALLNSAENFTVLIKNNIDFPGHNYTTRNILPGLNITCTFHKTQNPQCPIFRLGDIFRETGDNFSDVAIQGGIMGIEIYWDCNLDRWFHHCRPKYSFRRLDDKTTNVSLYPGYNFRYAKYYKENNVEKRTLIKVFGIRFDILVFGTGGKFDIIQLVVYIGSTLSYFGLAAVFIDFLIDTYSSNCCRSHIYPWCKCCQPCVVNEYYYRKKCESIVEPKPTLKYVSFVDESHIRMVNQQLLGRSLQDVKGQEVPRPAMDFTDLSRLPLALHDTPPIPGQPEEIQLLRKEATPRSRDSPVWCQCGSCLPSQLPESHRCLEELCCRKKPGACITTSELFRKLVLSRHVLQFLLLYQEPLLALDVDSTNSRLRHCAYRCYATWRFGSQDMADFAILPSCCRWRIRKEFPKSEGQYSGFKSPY
Assay: Antagonist activity at human P2X7 receptor transfected in THP1 cells assessed as inhibition of benzoyl-ATP-induced changes in plasma membrane pore formation
Assay type: functional, cell-based, THP-1
Conditions: read-out: pA2 (converted)
Overview of recorded Kb for various molecules
# value in nM; strip the unit string

Incoming: Which Kb reading was recorded for the molecule `O=C(NCC12CC3CC(CC(C3)C1)C2)c1cc(CN2C[C@@H]3C[C@H]2CN3)ccc1Cl` ?
Outgoing: 5.01

Incoming: Which Kb reading was recorded for the molecule `O=C(NCC12CC3CC(CC(C3)C1)C2)c1cc(OC2CCNCC2)ccc1Cl` ?
Outgoing: 15.8

----------
test: Clearance in Sprague-Dawley rat; assay type: ADME, organism-based; settings: in vivo
Outcome measure: clearance (mL/min/kg)
# value in mL/min/kg; strip the unit string

Incoming: Which clearance reading was recorded for the molecule `O=C(NCC12CC3CC(CC(C3)C1)C2)c1cc(CN2CCNCC2)ccc1Cl` ?
Outgoing: 13

----------
Overview of recorded IC50 for various compounds
target: P2X purinoceptor 7 (Rattus norvegicus); test: Antagonist activity at rat P2X7 receptor transfected in HEK cells assessed as inhibition of benzoyl-ATP-induced changes in plasma membrane pore formation; assay type: functional, cell-based, HEK293; settings: read-out: Log IC50 (converted)
Sequence (Q64663 whole entry): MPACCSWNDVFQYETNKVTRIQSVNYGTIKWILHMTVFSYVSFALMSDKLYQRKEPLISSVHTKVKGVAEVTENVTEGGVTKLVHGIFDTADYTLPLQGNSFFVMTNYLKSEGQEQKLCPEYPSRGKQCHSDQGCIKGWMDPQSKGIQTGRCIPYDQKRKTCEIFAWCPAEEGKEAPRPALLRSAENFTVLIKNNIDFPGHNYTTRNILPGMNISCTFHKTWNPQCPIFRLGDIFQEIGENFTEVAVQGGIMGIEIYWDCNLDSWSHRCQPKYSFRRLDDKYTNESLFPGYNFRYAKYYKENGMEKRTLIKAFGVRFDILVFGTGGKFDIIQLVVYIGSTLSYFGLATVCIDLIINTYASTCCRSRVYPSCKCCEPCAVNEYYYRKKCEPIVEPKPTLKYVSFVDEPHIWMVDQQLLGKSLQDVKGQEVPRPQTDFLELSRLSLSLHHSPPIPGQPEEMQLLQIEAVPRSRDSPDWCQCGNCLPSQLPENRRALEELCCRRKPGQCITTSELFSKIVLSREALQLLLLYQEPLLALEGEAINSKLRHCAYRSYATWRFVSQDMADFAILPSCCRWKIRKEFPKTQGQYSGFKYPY
# value in nM; strip the unit string

Incoming: Which IC50 reading was recorded for the compound `O=C(NCC12CC3CC(CC(C3)C1)C2)c1cc(CN2C[C@@H]3C[C@H]2CN3)ccc1Cl` ?
Outgoing: 251

Incoming: Which IC50 reading was recorded for the compound `O=C(NCC12CC3CC(CC(C3)C1)C2)c1cc(CC2CCNCC2)ccc1Cl` ?
Outgoing: 63.1

Incoming: Which IC50 reading was recorded for the compound `O=C(NCC12CC3CC(CC(C3)C1)C2)c1cc(NC2CCNCC2)ccc1Cl` ?
Outgoing: 501

----------
Overview of recorded Kb for various molecules
biological target: P2X purinoceptor 7 (Homo sapiens, UniProt Q99572); assay: Antagonist activity at human P2X7 receptor transfected in THP1 cells assessed as inhibition of benzoyl-ATP-induced changes in plasma membrane pore formation; assay type: functional, cell-based, THP-1; details: read-out: pA2 (converted)
# value in nM; strip the unit string

Below, 7 molecules whose answers are already recorded.
                                   molecule                               test_system  data_value
0  O=C(NCC12CC3CC(CC(C3)C1)C2)c1ccc(CN2CCCCC2)cc1Cl  P2X purinoceptor 7 (Homo sapiens, UniProt Q99572)         126
1  O=C(NCC12CC3CC(CC(C3)C1)C2)c1cc(NC2CCCNC2)ccc1Cl (racemic)  P2X purinoceptor 7 (Homo sapiens, UniProt Q99572)        5.01
2  O=C(NCC12CC3CC(CC(C3)C1)C2)c1cc(N2CCNCC2)ccc1Cl  P2X purinoceptor 7 (Homo sapiens, UniProt Q99572)        31.6
3  Cc1nnc(OC2CCNCC2)cc1C(=O)NCC12CC3CC(CC(C3)C1)C2  P2X purinoceptor 7 (Homo sapiens, UniProt Q99572)        1580
4  O=C(NCC12CC3CC(CC(C3)C1)C2)c1cc(CN2CCNCC2)ccc1Cl  P2X purinoceptor 7 (Homo sapiens, UniProt Q99572)          10
5  O=C(NCC12CC3CC(CC(C3)C1)C2)c1cc(CC2CCCNC2)ccc1Cl (racemic)  P2X purinoceptor 7 (Homo sapiens, UniProt Q99572)        6.31
6  O=C(NCC12CC3CC(CC(C3)C1)C2)c1nc(OC2CCCNC2)ncc1Cl (stereo not drawn)  P2X purinoceptor 7 (Homo sapiens, UniProt Q99572)         251

// below: Kb requested for another molecule
Incoming: Which Kb reading was recorded for the molecule `O=C(NCC12CC3CC(CC(C3)C1)C2)c1cc(CC2CCNCC2)ccc1Cl` ?
Outgoing: 15.8

----------
target: UniProtKB Q64663; assay: Antagonist activity at rat P2X7 receptor transfected in HEK cells assessed as inhibition of benzoyl-ATP-induced changes in plasma membrane pore formation; assay type: functional, cell-based, HEK293; conditions: read-out: Log IC50 (converted)
Overview of recorded IC50 for various compounds
# value in nM; strip the unit string

Below, 2 compounds whose answers are already recorded.
                                   compound  data_value
0  O=C(NCC12CC3CC(CC(C3)C1)C2)c1cc(CN2CCNCC2)ccc1Cl         398
1  O=C(NCC12CC3CC(CC(C3)C1)C2)c1cc(O[C@@H]2CCCNC2)ccc1Cl         316

Incoming: Which IC50 reading was recorded for the compound O=C(NCC12CC3CC(CC(C3)C1)C2)c1nc(OC2CCCNC2)ncc1Cl (stereo not given) ?
Outgoing: 316

Incoming: Which IC50 reading was recorded for the compound `O=C(NCC12CC3CC(CC(C3)C1)C2)c1cc(C2CCNCC2)ccc1Cl` ?
Outgoing: 316

Incoming: Which IC50 reading was recorded for the compound `Cc1nnc(OC2CCNCC2)cc1C(=O)NCC12CC3CC(CC(C3)C1)C2` ?
Outgoing: 794

Incoming: Which IC50 reading was recorded for the compound `O=C(NCC12CC3CC(CC(C3)C1)C2)c1ccc(CN2CCCCC2)cc1Cl` ?
Outgoing: 794
